Measured pEC50, listed per entry.
Target: T1, huCD39 recombinant protein (human, UniProt P49961 38-478)
T1 construct: the entry is the extracellular domain and ends in a histidine tag; also called soluble huCD39 protein; human CD39 extracellular domain recombinant protein
T1 sequence: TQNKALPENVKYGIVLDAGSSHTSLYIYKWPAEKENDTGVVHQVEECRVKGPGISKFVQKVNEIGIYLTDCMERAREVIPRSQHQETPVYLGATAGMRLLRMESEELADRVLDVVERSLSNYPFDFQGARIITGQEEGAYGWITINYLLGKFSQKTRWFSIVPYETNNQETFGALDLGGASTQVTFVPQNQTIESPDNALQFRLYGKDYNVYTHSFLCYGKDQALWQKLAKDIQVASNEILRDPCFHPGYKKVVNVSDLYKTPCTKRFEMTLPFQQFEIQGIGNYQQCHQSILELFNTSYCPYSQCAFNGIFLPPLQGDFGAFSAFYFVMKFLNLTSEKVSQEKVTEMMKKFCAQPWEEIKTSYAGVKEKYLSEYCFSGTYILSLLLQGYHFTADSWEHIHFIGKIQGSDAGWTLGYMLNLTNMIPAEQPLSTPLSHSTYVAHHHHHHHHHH
Experiment: indirect ELISA, huCD39 recombinant protein coated at 1 ug/mL
As a rule, pEC50 stands for the negative log10 of the concentration, concentration in M.

Solved cases below.
217 hIgG2 (antibody, V domains shown, Chimeric antibody: mouse Fv fused to the human IgG2 constant region) VH: EVQLVESGGGLVKPGGSLKLSCAASGFTFSDYGMHWVRQAPEKGLEWVAYISSGSSVIYYVDTVKGRFTISRDNAKNTLFLQMTSLRSEDTAMYYCARDLYYDHVLDSWGQGTTLTVSS VL: DIQMTQSPSSLSASLGERVSLTCRASQEIGGYLSWLQQKPDGTIKRLIYAASTLDSGVPKRFSGSRSGSDYSLTISSLESEDFADYYCLQYASYPRTFGGGTKLEIKR	8.32
201 hIgG2 (antibody, V domains shown, Chimeric antibody: mouse Fv fused to the human IgG2 constant region, expressed in 293F cells; also called chimeric antibody 201) VH: EVQLVESGGGLVKPGGSLKLSCAASGFTFSDYGMHWVRQAPEKGLEWVAYISSGSSIMYYADTVKGRFTISRDNAKNTLFLQMASLRSEDTAMYYCARDLYYDHVLDYWGQGTTLTVSS VL: DIQMTQSPSSLSASLGERVSLTCRASQEIRGYLIWLQQKPGGTIKRLIYAASTLDSGVPKRFSGSRSGSDYSLTISSLESEDFADYYCLQYTSYPRTFGGGTKLEIKR	8.86
216 hIgG2 (antibody, V domains shown, Chimeric antibody: mouse Fv fused to the human IgG2 constant region; also called chimeric antibody 216) VH: EVQLVESGGGLVKPGGSLKLPCAASGFTFSDYGMHWVRQAPEKGLEWVAYISSGSSIIYYADTVKGRFTISRDNAKNTLFLQMTSLRSEDTAMYYCARDLYYDHVLDYWGQGTTLTVAS VL: DIQMTQSPSSLSASLGERVSLTCRASQEISGYLIWLQQKPDGTIKRLIYAASTLDSGVPKRFSGNRSGSDYSLTISSLESEDFADYYCLQYASYPRTFGGGTKLEIKR	8.62

The record that follows has no pEC50 shown yet.
pEC50 for 219 hIgG2 (antibody, V domains shown, Chimeric antibody: mouse Fv fused to the human IgG2 constant region; also called chimeric antibody 219) VH: EVQLVESGGGLVKPGGSLKLSCAASGFTFSDYGMHWVRQAPEKGLEWVAYISSGSSIRYYADTVKGRFTISRDNAKNTLFLQMTSLRSEDTAIYYCARDLYYDHVLDYWGQGTTLTVSS VL: DIQMTQSPSSLSASLGERVSLTCRASQEVSGYLNWLQQKPDGTIKRLIYAASTLDSGVPKRFSGSRSGSDYSLTISSLESEDFADYYCLQYASYPRTFGGGTKVEIKR ? 8.77

FYI, the data here is from patent US20220411498A1.
